// provenance: paper PMC5217690

TARGET: TrmDSA (Staphylococcus aureus, UniProt Q2FHJ8)
Sequence (Q2FHJ8 2-245): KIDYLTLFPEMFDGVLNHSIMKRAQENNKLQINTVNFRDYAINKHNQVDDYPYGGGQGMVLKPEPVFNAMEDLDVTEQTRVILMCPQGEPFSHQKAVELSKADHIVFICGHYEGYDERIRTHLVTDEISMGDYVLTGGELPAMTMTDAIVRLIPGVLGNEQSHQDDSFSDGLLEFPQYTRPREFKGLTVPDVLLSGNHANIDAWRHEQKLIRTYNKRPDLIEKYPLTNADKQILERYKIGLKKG
PROPERTY LABEL: Kd
Kindly write the number and append the unit.

Param readout = Kd; param system = TrmDSA (Staphylococcus aureus, UniProt Q2FHJ8); param query = C[S+](CC[C@H](N)C(=O)O)C[C@H]1O[C@@H](n2cnc3c(N)ncnc32)[C@H](O)[C@@H]1O (stereo partly shown) [AdoMet] ; response: value
121 µM
